Values compiled from PubChem BioAssay AID434958.

Experiment: mammalian cell cytotoxicity, dose response, cytotoxicity control (AID 434958);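 also: cells exposed to compound for 72 hours before readout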
Conditions: cytotoxicity counter-screen; series mostly up to 40 µM
The whole screen tested about 1,200 compounds, of which about 400 (33%) were called active. These entries were drawn from the full list. Entries with a potency or affinity are not part of this list.
Quantity: outcome

Recorded outcome, per entry:
INSERT INTO measurements (compound, value) VALUES
  ('CC(=O)OCC(=O)Nc1ccc(C(C)=O)cc1', 'inactive'),
  ('CCOC(=O)Cc1nc2ccccc2[nH]1', 'inactive'),
  ('CN(C)S(=O)(=O)c1ccc(NC(=O)c2cc3ccccc3o2)cc1', 'inactive'),
  ('COc1ccc([C@H]2CC(=O)C=C(/C=C/c3ccccc3)C2)cc1OC', 'inactive'),
  ('Cc1nnc(SCC2=C(C(=O)O)N3C(=O)C(NC(=O)COc4ccc(F)cc4)C3SC2)s1 (stereo unspecified)', 'inactive');

Now consider a different compound.
Ask: So what's the measured outcome for this one? `O=C(O)c1cc(-c2ccco2)nc2ccc(Br)cc12`
Result: inactive

---

Test: mammalian cell cytotoxicity, dose response, cytotoxicity control (AID 434958);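 also: cells exposed to compound for 72 hours before readout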
Details: cytotoxicity counter-screen; series mostly up to 40 µM
The campaign covered roughly 1,200 compounds. About 400 (33%) were called active. Not all results are given here. Measured potencies and affinities stand elsewhere.
Quantity: outcome

INSERT INTO assay_data (compound, value) VALUES
  ('CCCCN1C(=O)c2ccc(C(=O)Nc3cccc(C)c3C)cc2C1=O', 'inactive'),
  ('O=C(CC1SC(=O)NC1=O)Oc1ccc(/C=N/NC(=O)c2ccccc2O)cc1 (stereo not drawn)', 'inactive'),
  ('C/C(=N/NC(=O)c1cccs1)c1ccc(NC(=O)COc2ccc(Cl)cc2)cc1', 'inactive'),
  ('CC(=O)c1ccccc1OCCOc1ncnc2sccc12', 'inactive'),
  ('CCC(=O)c1ccc(OCc2ccc(C(=O)OC)cc2)c(OC)c1', 'inactive'),
  ('COc1cc(NC(=S)NC(=O)c2cccs2)ccc1NC(=O)C(C)C', 'inactive'),
  ('CCN(CC(=O)Nc1ccc2c(c1)OCCO2)C(=O)c1ccc([N+](=O)[O-])s1', 'inactive'),
  ('O=C(CN1CCN(c2ccccn2)CC1)Nc1ccc(Cl)c(C(F)(F)F)c1', 'inactive');

Ask: So what's the measured outcome for this one? O=C(NCc1ccco1)c1cc2n(n1)C(C(F)(F)F)CC(c1ccc(F)cc1)N2 (stereo not drawn)
Result: inactive
